- System: HCT116
- Run description: cell viability (CellTiter-Glo) relative to plate median (fraction of plate median); higher = more viable cells
- Setup conditions: 5 µM; treatment time 24 h; reporter: TCF4/Wnt

| Compound | Target or test system | cell viability |
| --- | --- | --- |
| COC1=CC(=O)c2c(O)c3c(c(O)c2C1=O)OC1(Oc2c(cc4cc(C)oc(=O)c4c2O)C2OC21)C3O (configuration not stated) | HCT116 | 1.01 |
| COc1c2c(c(O)c3c4c(c(C)cc13)[C@@H]1O[C@@]3(C(OC)OC)O[C@@H]1[C@@](O[C@H]1CC(O)[C@@](O)(C(C)=O)C(C)O1)(O4)[C@@]3(O)Cn1cnc3nc(N)[nH]c(=O)c31)C(=O)C(O)CC2O[C@H]1CC(C)(O)[C@H](OC(C)=O)C(C)O1 (some centres not stated) | HCT116 | 0.966 |
| CCCCNc1cc(C(=O)O)cc(S(N)(=O)=O)c1Oc1ccccc1 | HCT116 | 0.947 |
| COc1ccc(C(=O)Oc2ccc(/C=N/NC(N)=O)cc2)cc1 | HCT116 | 0.991 |
| CCCCS(=N)(=O)CCC(N)C(=O)O (configuration not stated) | HCT116 | 0.948 |
| COc1ccc(-c2oc3ccccc3c(=O)c2O)cc1OC | HCT116 | 0.912 |
| O=C(Nc1ccccc1)Nc1ccccc1 | HCT116 | 0.996 |
| CC1(C)CC[C@]2(C(=O)O)CC[C@]3(C)C(=CCC4[C@@]5(C)CC[C@@H](O)C(C)(C)C5CC[C@]43C)C2C1 (some centres not stated) | HCT116 | 1.11 |
| Cc1c(Cl)cccc1Nc1ccccc1C(=O)O | HCT116 | 1.04 |
| NCCCC(=O)O | HCT116 | 1.02 |
| COc1cc(/C=C/C(=O)CC(=O)/C=C/c2ccc(O)c(OC)c2)ccc1O | HCT116 | 1.02 |
| COc1cc2c(cc1OC)[C@@H]1C(=O)c3ccc4c(c3O[C@@H]1CO2)C=CC(C)(C)O4 | HCT116 | 0.79 |
| NC[C@H](O)c1ccc(O)c(O)c1 | HCT116 | 0.95 |
| COC(=O)N/N=C/c1c[n+]([O-])c2ccccc2[n+]1[O-] | HCT116 | 0.998 |
| CCCCCCCCCCCC[C@@H](C(=O)O)[C@H](C)C(=O)O | HCT116 | 1.08 |
| CN1CCC(OC(c2ccccc2)c2ccccc2)CC1 | HCT116 | 1.02 |
| Clc1cccc(Cl)c1NC1=NCCN1 | HCT116 | 0.925 |
| C[C@H]1COC2=C1C(=O)C(=O)c1c2ccc2c1CCCC2(C)C | HCT116 | 1.12 |
| CC(=O)Nc1ccc(OC(=O)c2ccccc2O)cc1 | HCT116 | 0.989 |
| CC1=C(/C=C/C(C)=C/C=C/C(C)=C/C=C/C=C(C)/C=C/C=C(C)/C=C/C2=C(C)C(=O)[C@@H](O)CC2(C)C)C(C)(C)C[C@H](O)C1=O | HCT116 | 1.07 |
| Nc1ccccc1C(=O)CC(N)C(=O)O (configuration not stated) | HCT116 | 1.05 |
| CC1CCC(NC(=O)N(CCCl)N=O)CC1 (configuration not stated) | HCT116 | 1.02 |
| CC(=O)/N=c1/sc(S(N)(=O)=O)nn1C | HCT116 | 0.909 |
| Nc1ccn([C@@H]2O[C@H](CO)[C@@H](O)[C@H]2O)c(=O)n1 | HCT116 | 1.06 |
| CC(=O)O[C@@H]1C[C@H]2C(C)(C)C(=O)C=C[C@]2(C)[C@H]2CC[C@@]3(C)[C@H](c4ccoc4)OC(=O)[C@H]4O[C@]43[C@@]21C | HCT116 | 1.07 |
| CC(=O)O[C@H]1C[C@@H]2CC[C@@H]3[C@H](CC[C@@]4(C)[C@H]3C[C@H]([N+]3(C)CCCCC3)[C@@H]4OC(C)=O)[C@@]2(C)C[C@@H]1N1CCCCC1 | HCT116 | 1.03 |
| CCSC(=N)N | HCT116 | 0.948 |
| C=C[C@@H](C1=CC(=O)C(OC)=C(OC)C1=O)c1ccccc1 | HCT116 | 0.856 |
| O=C1c2c(O)ccc(O)c2C(=O)c2c(NCCNCCO)ccc(NCCNCCO)c21 | HCT116 | 0.635 |
| N=C(N)NCCN1CCCCCCC1 | HCT116 | 1.04 |
| CCCCC(=O)Oc1ccccc1C(=O)O | HCT116 | 0.98 |
| CCCCNC(=O)NS(=O)(=O)c1ccc(C)cc1 | HCT116 | 0.982 |
| COC(=O)c1c(C)cc(OC(=O)c2c(C)cc(O)c(C=O)c2O)c(C)c1O | HCT116 | 1.07 |
| NCCc1c[nH]cn1 | HCT116 | 1.02 |
| CN(C)CCc1c[nH]c2ccc(CS(=O)(=O)N3CCCC3)cc12 | HCT116 | 0.929 |
| COc1cc(O)c2c(=O)c(O)c(-c3ccc(O)c(O)c3)oc2c1 | HCT116 | 0.992 |
| O=C(O)c1cccc(O)c1O | HCT116 | 1.14 |
| CN(C)CCCO[C@@H]1[C@H]2OC(C)(C)O[C@H]2O[C@@H]1[C@H](O)CO | HCT116 | 0.994 |
| CCCCCCCCCCC[C@@H](C[C@@H]1OC(=O)[C@H]1CCCCCC)OC(=O)[C@H](CC(C)C)NC=O | HCT116 | 1.03 |
| COc1ccc(C[C@H](N)C(=O)N[C@H]2[C@@H](O)[C@H](n3cnc4c(N(C)C)ncnc43)O[C@@H]2CO)cc1 | HCT116 | 0.908 |
| O=[N+]([O-])c1cccc2cn[nH]c12 | HCT116 | 0.987 |
| CN1CCC(=C2c3ccccc3CCc3sccc32)CC1 | HCT116 | 1.14 |
